- PROTOCOL: Pharmacokinetics in rat plasma after oral administration of PA, PMRP or ATR (HPLC-MS and GC-MS)
- EXPERIMENTAL_CONDITIONS: male, Sprague-Dawley, rat, plasma, po, 4.32 g/kg
RECORDED_METRIC: AUC(0-t) (ng·h/mL)
Supply the numeric figure in ng·h/mL, leaving out any unit text.

AUC(0-t) for `C/C=C\c1cc(OC)c(OC)cc1OC` ?
439

Quick one: AUC(0-t) for `C/C=C/c1cc(OC)c(OC)cc1OC` ?
1020

# AUC(0-t) lookup, item OCC1OC(Oc2c(O)cc(O)cc2C=Cc2ccc(O)cc2)C(O)C(O)C1O (stereo not shown)
1520

Give the measured AUC(0-t) of C/C=C/c1ccc(OC)c(OC)c1 [cis-methyl isoeugenol] .
118

---

Assignment: determine reported AUC(0-inf) for the given compounds.
- PROTOCOL: Pharmacokinetics in rat plasma after oral administration of PA, PMRP or ATR (HPLC-MS and GC-MS)
- EXPERIMENTAL_CONDITIONS: male, Sprague-Dawley, rat, plasma, po, 2.16 g/kg
Your answer should be a plain number; it is taken to be in ng·h/mL.

Quick one: AUC(0-inf) of C/C=C/c1ccc(OC)c(OC)c1 [cis-methyl isoeugenol] ?
123

Name the recorded AUC(0-inf) for OCC1OC(Oc2c(O)cc(O)cc2C=Cc2ccc(O)cc2)C(O)C(O)C1O (stereo not shown) .
102

Given the compound `C/C=C/c1cc(OC)c(OC)cc1OC` , what is its reported AUC(0-inf)?
1040

For the compound `C/C=C\c1cc(OC)c(OC)cc1OC` , what AUC(0-inf) is on record?
1050

---

- PROTOCOL: Pharmacokinetics in rat plasma after oral administration of PA, PMRP or ATR (HPLC-MS and GC-MS)
- EXPERIMENTAL_CONDITIONS: male, Sprague-Dawley, rat, plasma, po, 2.16 g/kg, Tmax, rat plasma; oral ATR extract 2.16 g/kg once; mean ± S.D., n = 6
Please provide measured Tmax for the entries that follow.
Please reply with the bare figure in h and do not write the unit itself.

Suppose we examine the compound `C/C=C\c1cc(OC)c(OC)cc1OC` ; what Tmax value has been reported?
4.78

Item C/C=C/c1ccc(OC)c(OC)c1 [cis-methyl isoeugenol] has what recorded Tmax?
3.51

Value lookup for Tmax; key = `C/C=C/c1cc(OC)c(OC)cc1OC`
3.54

---

- PROTOCOL: Pharmacokinetics in rat plasma after oral administration of PA, PMRP or ATR (HPLC-MS and GC-MS)
- EXPERIMENTAL_CONDITIONS: male, Sprague-Dawley, rat, plasma, po, 2.16 g/kg, Tmax, rat plasma; oral PMRP extract 2.16 g/kg once; mean ± S.D., n = 6
RECORDED_METRIC: Tmax (min)
// note: answer is a bare numeric in min

Need Tmax of OCC1OC(Oc2c(O)cc(O)cc2C=Cc2ccc(O)cc2)C(O)C(O)C1O (stereo not shown) , thanks.
23.4

---

Give measured Cmax for each item. Keep answers brief.
- PROTOCOL: Pharmacokinetics in rat plasma after oral administration of PA, PMRP or ATR (HPLC-MS and GC-MS)
- EXPERIMENTAL_CONDITIONS: male, Sprague-Dawley, rat, plasma, po, 2.16 g/kg
Express it in ng/mL; write the number only.

Requested read-out: Cmax. Entry: `C/C=C\c1cc(OC)c(OC)cc1OC`
49.8

Given the entry OCC1OC(Oc2c(O)cc(O)cc2C=Cc2ccc(O)cc2)C(O)C(O)C1O (stereo not shown) , report its measured Cmax.
147

Request the reported Cmax associated with C/C=C/c1ccc(OC)c(OC)c1 [cis-methyl isoeugenol]
19.4

// Cmax lookup, key: `C/C=C/c1cc(OC)c(OC)cc1OC`
73.5
